- Tested on: IGROV-ET
- ASSAY_NAME: SRB colorimetric cell growth inhibition assay, IGROV-ET
- MEASUREMENT_PARAMETERS: read-out: LC50; IGROV-ET cells; cell killing; SRB, 48 hours exposure
Starred links: 1 amine or outer side, 2 acyl side, 3 side chain; linkers in the order of their positions; H or OH if unused. Positions of bridges follow the written chain, without caps; N, C: chain ends. Non-standard residues stand in square brackets, D forms with d. Residues, ends and D or L forms follow the SMILES beside them. Hexanoyl(3S-OH,4R-NH2,5-Me) = CC(C)[C@@H](N[*:1])[C@@H](O)CC(=O)[*:2]; NMeY = CN[C@@H](Cc1ccc(O)cc1)C(=O)O; NMeF = CN[C@@H](Cc1ccccc1)C(=O)O; dNMeL = CN[C@H](CC(C)C)C(=O)O; Hiv = CC(C)[C@H](O)C(=O)O; Lac = C[C@H](O)C(=O)O
Reported CC50 by item:
Numbers only here, please. The scale is µM.

COc1ccc(C[C@H]2C(=O)O[C@H](C)[C@H](NC(=O)[C@@H](CC(C)C)N(C)C(=O)[C@@H]3CCCN3C(=O)[C@H](C)O)C(=O)N[C@H](C(C)C)[C@@H](O)CC(=O)O[C@@H](C(C)C)C(=O)N[C@@H](CC(C)C)C(=O)N3CCC[C@H]3C(=O)N2C)cc1 [tamandarin B, Tamandarin B, reference compound] (H-[Lac]P[dNMeL]T[Hexanoyl(3S-OH,4R-NH2,5-Me)][Hiv]LP[NMeY](Me); ester 4-C); 9.59

Alright, here's another molecule for you.
INPUT: # query: CC50 of entry CC(C)C[C@@H]1NC(=O)[C@H](C(C)C)OC(=O)C[C@H](O)[C@@H](C(C)C)NC(=O)[C@@H](NC(=O)[C@@H](CC(C)C)N(C)C(=O)[C@@H]2CCCN2C(=O)[C@H](C)O)[C@@H](C)OC(=O)[C@H](Cc2ccccc2)N(C)C(=O)[C@@H]2CCCN2C1=O [Phe^5 tamandarin B, [N-MePhe^5]-Tamandarin B] (H-[Lac]P[dNMeL]T[Hexanoyl(3S-OH,4R-NH2,5-Me)][Hiv]LP[NMeF]; ester 4-C)
OUTPUT: 6.35
